Test system: HEL
Assay: cell viability (% survival relative to DMSO control, bortezomib = 0%); higher = less cytotoxic
Conditions: 1000 nM; 72 h
recorded-endpoint: cell viability (%)
One number for each entry, in %.

O=C(O)C1=CC(=C(c2ccc(O)c(C(=O)O)c2)c2ccc(O)c(C(=O)O)c2)C=CC1=O
92.5
CCOP(=O)(OCC)C(=Cc1cc(C(C)(C)C)c(O)c(C(C)(C)C)c1)P(=O)(OCC)OCC
89.8
CC(C)c1cc2c(c(O)c1O)[C@@]1(C(=O)O)CCCC(C)(C)[C@@H]1CC2
100

The following compounds each have a reported value; give each one's cell viability.
1. NS(=O)(=O)c1ccc([N+](=O)[O-])cc1 [4-Nitrobenzenesulfonamide]
2. COc1ccc2c(C(=S)N(C)CC(=O)O)cccc2c1C(F)(F)F
3. Nc1nc(Cl)nc2c1ncn2[C@H]1C[C@H](O)[C@@H](CO)O1
4. COc1cc(/C=C/C(=O)N2CCC=CC2=O)cc(OC)c1OC
5. O=C(C1CC1)N1CC[C@@H](C=C2NNC(=O)N2c2ccc(-c3ccc4occc4c3)cc2)C1

Return:
99.6
93
0.404
97.5
101

---

System: MV4-11
Experiment: cell viability (% survival relative to DMSO control, bortezomib = 0%); higher = less cytotoxic
Conditions: 10000 nM; 72 h
Provide the reported cell viability of each item.
Answers are plain numbers, in %.

Cc1coc2c1C(=O)C(=O)c1c-2ccc2c1CCCC2(C)C
80.3
Nc1nc(Cl)nc2c1ncn2[C@H]1C[C@H](O)[C@@H](CO)O1
-0.0474
CCC(=O)N1CCN(c2ccc(-n3c(=O)ccc4cnc5ccc(-c6cnc7ccccc7c6)cc5c43)cc2C(F)(F)F)CC1
11.1
O=C(O)c1cc(N=Nc2ccc(S(=O)(=O)Nc3ccccn3)cc2)ccc1O
103
CC(C)c1nc(CN(C)C(=O)N[C@H](C(=O)N[C@@H](Cc2ccccc2)C[C@H](O)[C@H](Cc2ccccc2)NC(=O)OCc2cncs2)C(C)C)cs1
71.9
COc1ccc(CNC(=O)Nc2ncc([N+](=O)[O-])s2)cc1
90.6

Report cell viability for every entry below.
1. O=C(C1CC1)N1CC[C@@H](C=C2NNC(=O)N2c2ccc(-c3ccc4occc4c3)cc2)C1
2. CCCc1cc(-c2nc(-c3ccc(C)cc3)cs2)ccn1

Return:
1. 59.9
2. 65.7

---

Test system: HL-60
Experiment: cell viability (% survival relative to DMSO control); higher = less cytotoxic
Details: 10 µM; 72 h; co-treatment: DMSO vehicle
recorded-endpoint: cell viability (%)
Give bare numbers, in %.

Answered cases to consult:
CCOP(=O)(OCC)C(=Cc1cc(C(C)(C)C)c(O)c(C(C)(C)C)c1)P(=O)(OCC)OCC
105
NCCCC(N)(C(=O)O)C(F)F (centres undefined) [Difluoromethylornithine]
103
O=C(C1CC1)N1CC[C@@H](C=C2NNC(=O)N2c2ccc(-c3ccc4occc4c3)cc2)C1
85.8

The following compounds each have a reported value; give each one's cell viability.
1. CC(C)c1onc(-c2c(Cl)cccc2Cl)c1COc1ccc(/C=C/c2cccc(C(=O)O)c2)c(Cl)c1 [GW4064]
2. C[C@H](NC(=O)c1sccc1OCc1ccc(Cl)cc1)c1ccccc1
3. O=c1cc(-c2ccccc2)oc2cc(O)c(O)c(O)c12 [Baicalein]
4. CC(C)(O)CNc1nc(Nc2ccnc(C(F)(F)F)c2)nc(-c2cccc(C(F)(F)F)n2)n1 [AG-221]
5. O=C(O)C(=S)Cc1c[nH]c2ccc(F)cc12
6. CCCCN1C[C@H](O)[C@@H](O)[C@H](O)[C@H]1CO [Miglustat]

Return:
99.6
97.6
102
103
104
98
